Test system: UO-31
Assay: NCI tumour cell line growth inhibition, 48 h
The source made the active and inactive calls. No stated cut-off is given here; in the data, active = GI50 up to about 1.1 µM and inactive = higher.
Each entry below carries its recorded GI50.
quantity name: GI50

| compound | value observed |
| --- | --- |
| CN(C)CC/C=C1\c2ccccc2Sc2ccc(Cl)cc21 | 9.4 µM (inactive) |
| CC(=O)NC(NCCN)(c1ccccc1)c1ccccc1 | 48 µM (inactive) |
| O=c1/c(=C/c2ccc3c(c2)OCO3)sc2nnc(-c3ccco3)n12 | > 100 µM (inactive) |
| O=C1c2cccc3cccc(c23)C(=O)N1CCCNCCCCNCCCN1C(=O)c2cccc3cccc(c23)C1=O | 2.26 µM (inactive) |
| Nc1ccc2c(SCC(=O)Nc3ccccc3-c3ccccc3NC(=O)CSc3c4ccccc4nc4cc(N)ccc34)c3ccccc3nc2c1 | 20 µM (inactive) |
| CCCCCCCCCC[S+]([O-])CC(CO)NC(=O)/C=C/c1c(C)nc(O)nc1O (stereo not given) | 1.28 µM (inactive) |
| COc1ncnc2c(Cl)c(C(O)c3ccccc3)c(Cl)cc12 (stereo not given) | 37.3 µM (inactive) |
| C=C[C@@]1(C)CC(=O)[C@]2(O)[C@@]3(C)[C@@H](O)CCC(C)(C)[C@@H]3[C@H](O)[C@@H](OC(C)=O)[C@@]2(C)O1 | 60.4 µM (inactive) |
| Cc1ccc(/N=C2/C(c3ccccc3)=C(SC3=C(c4ccccc4)/C(=N/c4ccc(C)cc4)c4ccccc43)c3ccccc32)cc1 | 15.6 µM (inactive) |
| CCOP(=O)(OCC)C(Cc1ccccc1)N=C(c1ccccc1)c1ccccc1 (stereo not given) | 11.5 µM (inactive) |
| CC12CCCC(C(=O)O)(C1)[C@H](C(C)(C)C(=O)O)CC2 (stereo not given in full) | > 100 µM (inactive) |
| C=C(C)[C@@H]1CCC2=C[C@@H](OC2=O)[C@@H](C(=C)C)C2=CC(C(=O)O)=C(C1)O2 | 26 µM (inactive) |
| CC1(C)C2C=CC1(C)C1(CC2)OCCO1 (stereo not given) | > 100 µM (inactive) |
| CC(C(=O)O)c1cnn(-c2ccccc2)c1-n1cccc1 (stereo not given) | > 100 µM (inactive) |
| Nc1ncnc2c1nnn2C1CCC(CP(=O)(O)O)C1 (stereo not given) | > 100 µM (inactive) |
| CCCCc1ccc(-n2c(C)c(COC(=O)NC)c(COC(=O)NC)c2C)cc1 | 2.7 µM (inactive) |
| CCCCc1ccc(N2C(=O)c3cc([N+](=O)[O-])cnc3S2(=O)=O)cc1 | > 100 µM (inactive) |
| CCOC(=O)N/N=C(\CC)OCC | > 100 µM (inactive) |
| COc1ccc(/C=C/CO)cc1OC | > 100 µM (inactive) |
| CCCNC(=O)c1cc(NC(=O)c2cc(NC(=O)/C=C/c3ccccc3)c(OC)c(OC)c2)c(OC)c(OC)c1 | 5.6 µM (inactive) |

* * *

Tested on: DU-145
Test: NCI tumour cell line growth inhibition, 48 h
Active and inactive are the calls of the source. Cut-off read from the data, not from the text of the source: active = GI50 up to about 1.1 µM and inactive = higher. Where a SMILES comes first, the peptide text is derived from it. The star is where a group is joined. Cbz = O=C(OCc1ccccc1)*
quantity name: GI50

| molecule | value observed |
| --- | --- |
| COc1cc2c(cc1C)NC(=O)/C2=C/c1cccnc1 | 12.3 µM (inactive) |
| Cc1ccc(OCCn2cc(Nc3ccccc3)c(=O)[nH]c2=O)cc1 | > 100 µM (inactive) |
| C=C(C)[C@@H]1CCC2=C[C@@H](OC2=O)[C@@H](C(=C)C)C2=CC(C(=O)O)=C(C1)O2 | > 100 µM (inactive) |
| C[C@]12CCC(=O)C=C1CC[C@@H]1[C@@H]2CC[C@]2(C)C(=O)/C(=C/c3ccncc3)C[C@@H]12 | 14.5 µM (inactive) |
| COc1cc(-c2ccccc2N)c2cccnc2c1OC | 2.89 µM (inactive) |
| CCOP(=O)(OCC)C(Nc1ccc(F)cc1)c1cccc([N+](=O)[O-])c1 (stereo not drawn) | > 100 µM (inactive) |
| CCOC(=O)CNC(=O)C(C)NC(=O)C(NC(=O)OCc1ccccc1)C(C)C (stereo not drawn) (Cbz-Val-Ala-Gly-OEt; configuration not given here) | > 100 µM (inactive) |
| Cc1ccc(O)c(C(=O)/C=C/c2ccccc2)c1 | > 100 µM (inactive) |

* * *

We begin with a simple list: items and their reported GI50.
Tested on: NCI-H226
Assay: NCI tumour cell line growth inhibition, 48 h
Activity calls are given as the source filed them. Rule as the data show it: active = GI50 up to about 1.1 µM and inactive = higher. Where a SMILES comes first, the peptide text is derived from it. [ ]: non-standard residue; d: D form. The star is where a group is joined. Iva = CC[C](C)(N)C(=O)O; Boc = CC(C)(C)OC(=O)*; X54 = C1CCC(=NO*)C1

| molecule | GI50 |
| --- | --- |
| CC1=NCC[N+]1(CCc1ccccc1)Cc1ccccc1 (stereo not drawn) | 65 µM (inactive) |
| CCOC(=O)C1(Cc2ccc3c(c2)CCC3)Cc2cc3c(cc2C1=O)CCC3 (stereo not drawn) | > 83 µM (inactive) |
| COc1cc(/C=C/C(=N\NC(=O)c2ccccc2)c2sc(Nc3ccc(Cl)c(Cl)c3)nc2C)ccc1O | 20.5 µM (inactive) |
| COC(O)C12OC3CO[Si](C(C)C)(C(C)C)O[Si](C(C)C)(C(C)C)OC3C1Oc1nc(=O)ccn12 (stereo not drawn) | 17.7 µM (inactive) |
| c1ccc2c(c1)cc1n2CCc2c-1[nH]c1ccccc21 | > 10 µM (inactive) |
| COc1cc2c(c(OC)c1OC)C(=O)[C@H](Br)[C@H]2NC(=O)NCCCl | 88.5 µM (inactive) |
| c1ccc2c(c1)ccc1nc(-c3ccc4c(c3)OCO4)c3c(c12)CCCC3 | 73.1 µM (inactive) |
| c1ccc(NNC2=NCCN2)cc1 | > 100 µM (inactive) |
| COc1ccc(N2C(=O)C3c4[nH]c5c(C)cccc5c4C4CCC(c5ccccc5)CC4C3C2=O)cc1 (stereo not drawn) | 10.4 µM (inactive) |
| Clc1ccc(Cc2nc3cc(Cl)ccc3o2)cc1 | 29.1 µM (inactive) |
| O=C1CS(=O)(=O)C(c2cccc(Oc3ccccc3)c2)N1c1cccc(Cl)c1 (stereo not drawn) | 27.7 µM (inactive) |
| C[C@]12CC=CC(=O)[C@@]1(C)CCC(=O)C2 | > 100 µM (inactive) |
| Cc1cc(C)c(C[C@H]2COC(=O)[C@]2(O)Cc2c(C)cc(C)cc2C)c(C)c1 | 17 µM (inactive) |
| CC1(C)C2C=CC1(C)C1(CC2)OCCO1 (stereo not drawn) | > 100 µM (inactive) |
| Cc1[nH]n(-c2nc(O)c(C)c(=O)[nH]2)c(=O)c1CCO | > 100 µM (inactive) |
| COC(OC)C(O)C1OC=CC1n1cnc2c(N)ncnc21 (stereo not drawn) | > 100 µM (inactive) |
| O=C1c2ccccc2-c2ccc(/N=[N+](/[O-])c3ccc4c(c3)C(=O)c3ccccc3-4)cc21 | > 100 µM (inactive) |
| N/N=C(/C(=O)Nc1cccc(Cl)c1)C(C(=O)c1ccc(O)cc1O)C1OC(=O)c2ccccc21 (stereo not drawn) | 95.1 µM (inactive) |
| CCOP(=O)(OCC)/C(C#N)=C/c1ccc(-c2ccc(F)cc2F)o1 | 16.5 µM (inactive) |
| O=C1CSC(c2cccs2)N1c1nc2cc3sc(N4C(=O)CSC4c4cccs4)nc3cc2s1 (stereo not drawn) | 6.38 µM (inactive) |
| O=C(Nc1ccc(Cl)cc1)C1C(=O)C(=O)N(c2ccc(Cl)cc2)C1=O (stereo not drawn) | > 100 µM (inactive) |
| C=C(C)[C@@H]1CCC2=C[C@@H](OC2=O)[C@@H](C(=C)C)C2=CC(C(=O)O)=C(C1)O2 | > 100 µM (inactive) |
| COC(=O)[C@]12CSC[C@H]1C[C@H](c1cccc3ccccc13)N2 | 96.2 µM (inactive) |
| CC(=O)Oc1c(-c2ccccc2)sc2ccccc12 | 13.3 µM (inactive) |
| CCC(C)(NC(=O)C(C)NC(=O)OC(C)(C)C)C(=O)NC(C)C(=O)NC(C)(CC)C(=O)ON=C1CCCC1 (stereo not drawn) (Boc-A[Iva]A[Iva]-X54; configuration not given here) | > 100 µM (inactive) |
| O=N/N=c1\o[n-][n+](CCc2ccccc2)c1Cc1/c(=N/N=O)o[n-][n+]1CCc1ccccc1 | 29.9 µM (inactive) |
| CCOC(=O)N1CCC2(CC1)CC(=O)N(Nc1ccccc1)C2=O | > 100 µM (inactive) |
| CCOC(=O)COC1=Nc2cc(OC)c(OC)c3nc(Cl)cc(c23)C1=O | 11.1 µM (inactive) |
| O=c1nc(N2CCNCC2)oc2cc(Cl)oc(=O)c12 | 15.4 µM (inactive) |
| CN(C)CCNC(=O)c1ccc(Cl)c2cc3ccccc3nc12 | 0.918 µM (active) |
| O=C(c1cccs1)N(C(=S)OCc1ccccn1)c1ccccc1 | 32.9 µM (inactive) |
| COc1ccc(/C=C/CO)cc1OC | 49.9 µM (inactive) |
| CN(C)CCSS(=O)(=O)O | > 100 µM (inactive) |
| C[C@]12CCC(=O)C=C1CC[C@@H]1[C@@H]2CC[C@]2(C)C(=O)/C(=C/c3ccncc3)C[C@@H]12 | 16.9 µM (inactive) |
| NNC(=O)C1(NC(=O)c2ccccc2)C(c2ccccc2)C(c2ccccc2)=NN1c1ccccc1 (stereo not drawn) | > 100 µM (inactive) |
| Cc1cc2cc3c(cc2c(-c2ccc([N+](=O)[O-])cc2)n1)OCO3 | 24.8 µM (inactive) |
| CNC(=O)CCC(NC(C)=O)C(=O)NC(Cc1ccc(NC(=O)CCCCC(C)=O)cc1)C(=O)NC(CCC(=O)NC)C(=O)NC (stereo not drawn) | > 100 µM (inactive) |
| CSc1nc(C)cc(=O)n1C1OC(COC(C)=O)C(OC(C)=O)C(OC(C)=O)C1OC(C)=O (stereo not drawn) | > 100 µM (inactive) |
